A collection of compounds and their measured melting point

Lookup: Value lookup for melting point; key = CCOC(=O)C1CCc2cc([N+](=O)[O-])ccc2O1 (configuration not stated)
Found: 80.8 °C

Lookup: Sample COc1ccc(Oc2c(C)cc(CC#N)cc2C)cc1C(C)C — what was its melting point?
Found: 56 to 58 °C

---

Measured melting point, listed per entry for reference.

See these solved cases before continuing.
Molecule	melting point
CCCCCC(CC(=O)Nc1cc(C(N)=O)ccc1C(C)(C)C)c1cc(C)c(OC)cc1OC (configuration not stated)	179 to 180 °C
CCOC(=O)c1c2c3c(cccc3n1C)CCC2	80 to 81 °C
CCn1c(C#N)ccc1-c1ccc2c(c1)C(C)(C)OC(=O)N2	200 to 202 °C
Cc1cncc(C(=O)Nc2cc(-c3c(-c4ccc(F)c(C)c4)nc4cccnn34)ccn2)c1	238 to 240 °C
Cc1cc2nc(NC(=O)C(C)(C)C)nc(Cl)c2[nH]1	162 to 163 °C
CCOC1Cc2cc3ccc(=O)oc3c(OC)c2O1 (configuration not stated)	119 to 120 °C
CCn1c(C(C)NS(=O)(=O)c2ccc(Cl)c(Cl)c2)cnc1Sc1ccc(C)cc1 (configuration not stated)	173 to 174 °C
CCOC(=O)c1c(O)c2cc(F)ccc2c(=O)n1CC1CC1	61 to 62 °C
C=CCc1cc(CCC(=O)OCC)ccc1C#CC1(O)CN2CCC1CC2 (configuration not stated)	55 to 56 °C
O=C(O)c1ccccc1-c1nnc(-c2ccccc2)s1	178 to 180 °C

Lookup: Requested read-out: melting point. Entry: Nc1ccc(OCC(=O)OCCO)cc1
Found: 104 to 106 °C

Lookup: Reported melting point for CC(C)OC(=O)c1cc(NC(=O)C(C)(C)C)c(F)cc1Cl : what is it?
Found: 81 to 83 °C

---

Parameter: melting point. Scope: all listed entries.

Take a look at these entries with their results.
Compound	Reported result
CCOc1cc(CO)ccc1OCCBr	51 to 53 °C
CC1(C(=O)O)CCCc2cc(C3CCCCC3)c(Cl)cc21 (stereo not given)	167 to 168 °C
CC(C)(C)OC(=O)N1CCC(Cc2ccc(Cl)cc2)(C(=O)O)CC1	179 to 180 °C
CC(CN(C)S(C)(=O)=O)n1nnc2cc3c(=O)n(C4CC4)nnc3cc2c1=O (stereo not given)	170 to 172 °C
CCOc1ccc(-c2ncccc2S(=O)(=O)Nc2ncc(C)nc2OC)cc1	162 to 163 °C
CCc1c(Cc2[nH]c(C=O)c(C)c2CCCOC(C)=O)[nH]c(Cc2[nH]c(C=O)c(C)c2CCCOC(C)=O)c1CC	179 to 181 °C

Lookup: # melting point lookup, item N#Cc1cn2c(nc1=O)CCCCC2
Found: 205 to 206 °C

Lookup: Reported melting point, compound COC(=O)C#CC(=O)c1ccc(Cl)cc1 : ____
Found: 49 to 50 °C

---

Recorded endpoint: melting point

Compound	melting point
CN(c1ncccc1C#N)C1CCN(Cc2ccccc2)CC1	58 to 60 °C
CC(C)(C)c1cc(C(C(=O)O)c2ccc(O)c(C(C)(C)C)c2)ccc1O	173 °C
O=[N+]([O-])c1cccc(OCc2ncc3ccccc3n2)c1	125 to 127 °C
CCCCCCCCOc1ccc(CCC(N)(CO)CCC)cc1 (stereo not drawn)	43 to 47 °C

Lookup: Requested read-out: melting point. Entry: CCCCC1CCCC2=C1C(=O)c1cc(C)c(C)cc1C2=O (stereo not drawn)
Found: 88 to 90 °C

Lookup: Data request, read-out melting point, for Cc1cc(OC/C=C(/c2ccc(Cl)cc2)c2ccc(C#CCN3CCC(CO)CC3)cc2)ccc1OCC(=O)O
Found: 94 to 104 °C

Lookup: melting point lookup needed for CCCCS(=O)(=O)c1ccc2nn(-c3cc(C(C)(C)CC(C)(C)C)cc(C(C)(C)c4ccccc4)c3O)nc2c1 , thanks.
Found: 118 °C

Lookup: Quick check: melting point of Cc1c(C(Cl)=Cc2ccc(C(F)(F)F)cc2)ccc2nc(N)nc(N)c12 ?
Found: > 300 °C

Lookup: I'd like to know its melting point. The compound in question is COC(=O)C1(N2CCCCC2)CCN(Cc2ccccc2)CC1
Found: 84.7 °C

Lookup: Name the recorded melting point for O=C(O)CNC(=O)Cc1ccc(Cl)cc1SC(=O)c1ccccc1 .
Found: 158 to 159 °C

Lookup: Given COc1cc(C=O)ccc1NC(C)=O , state its recorded melting point.
Found: 145 °C

Lookup: May I ask what melting point has been recorded for COc1ccc(C(C#N)=C(C)C)cc1OC ?
Found: 93 to 95 °C

Lookup: If you can, please state the reported melting point value of COc1ccc(Nc2ncc3ccc(=O)n(C4CCCC4)c3n2)cn1 .
Found: 181 to 182 °C

---

Recorded endpoint: melting point (°C)

Reference set, count: 2
Compound	Reported result
COC1CCC(CCNC(=O)n2cc(F)c(=O)[nH]c2=O)CC1OC (stereo not given)	129
CN(CCCCNC(=O)NCCCOc1cccc(CN2CCCCC2)c1)CCN(Cc1ccc(F)cc1)c1ccccn1	69

[P] CC(SC1COC(c2ccc(C(=O)Nc3ccc(C#N)cc3)cc2)OC1)C(O)(Cn1cncn1)c1ccc(F)cc1F (stereo not given)
[Q] CCCCCCCCCCCCCC(=O)c1c(O)c(C)c(C)c(O)c1CCC
Lookup: Among P and Q , which shows a numerically higher melting point result? # respond with the chosen item's label
Found: P

---

Recorded endpoint: melting point

Compound	melting point
CC(=O)N1CCC(C(=O)Nc2ccc(-n3nc(C(F)(F)F)cc3C(F)(F)F)cc2)CC1	94 to 95 °C

Lookup: Which measured melting point value corresponds to COC(=O)c1sccc1-c1ccccc1 ?
Found: 63 to 66 °C

Lookup: Tell me the measured melting point of c1nc(SC2CCCCC2)c2cc[nH]c2n1 , please.
Found: 162 to 163 °C

Lookup: Would you mind telling me what melting point value was observed for CC(C)c1nc(CC(=O)O)n(C)c1Sc1cc(Cl)cc(Cl)c1 ?
Found: 118 °C

Lookup: Which melting point value belongs to O=c1c2cccnc2c(-c2ccc(Cl)cc2)c2n1CCN2 ?
Found: 260 to 262 °C

Lookup: Can you look up the measured melting point of O=C(O)C1=NC(c2ccc(Cl)cc2Cl)N(c2ccc(Cl)cc2)C1 (centres undefined) for me?
Found: 150 to 151 °C

Lookup: Would you mind telling me what melting point value was observed for CN(Cc1ccc(C2=NCCN2C(=O)OC(C)(C)C)cc1)C(=O)OCc1ccccc1 ?
Found: 124 °C

Lookup: # lookup: melting point of CC(O)Cc1cc(N)cc([N+](=O)[O-])c1N (centres undefined)
Found: 115 °C

Lookup: If you can, please state the reported melting point value of CCCCn1c(-c2ccccc2)nc(Cl)c1CC(=O)O .
Found: 189 to 190 °C

---

# key: entry, value: melting point

Compound	Reported result
CCCNC(=S)NCCc1cccc2ccc(OC)cc12	95 to 97 °C
CC(=O)Nc1nc(CCc2ccc(CCCN)s2)cs1	106 to 108 °C
COc1ccc(Nc2cnc3c(NCc4ccccc4)nc(NCCO)nc3c2)cc1OC	149 to 150 °C
ClC(Cl)(Cl)C1Oc2ccc(C=NNc3ccccc3)cc2C(C(Cl)(Cl)Cl)O1 (stereo not drawn)	191 to 192 °C
Cc1cc(OCCCCl)c(C)c(C)c1OCCCCl	143 °C
CCOC(=O)C1=C(C)NC(C)=C(C(=O)OCC)C1c1ccccc1C=CC(=O)O	175 to 178 °C
OCc1csc(N2CCCC2)n1	146 to 148 °C

We now examine a further compound.
Lookup: Which melting point value is on record for CC(=O)OCC1OC(OC(C)=O)C(N=[N+]=[N-])C(OC(C)=O)C1OC1OC(COC(C)=O)C(OC(C)=O)C(OC(C)=O)C1OC(C)=O (stereo not drawn) ?
Found: 77 to 78 °C

---

Attribute: melting point

Worked cases, melting point given:
Compound	melting point
C=CCC1COC(CC)(CC(=O)OC)c2[nH]c3c(CC)cccc3c21 (configuration not stated)	92 to 93 °C
COc1ccc(C(=O)N2C(C)Cc3ccccc3C2CNC(=O)c2cc(OC)c(OC)c(OC)c2)cc1 (configuration not stated)	213 to 215 °C
CN1C=C(C(=O)O)C(=O)CC1c1ccc(Cl)cc1 (configuration not stated)	205 to 206 °C
Cc1nc2cccc3n(CCCCCNS(=O)(=O)CC(F)(F)F)c(=O)c1n23	143 to 145 °C
COC=C(C(=O)OC)c1c(OCc2cc(Cl)ccc2Cl)c(C)nn1C	94 to 96 °C

Lookup: Requested field: melting point. Item: O=CNc1nc(C(=NOC2CCCCC2)C(=O)O)cs1
Found: > 230 °C

Lookup: So what's the measured melting point for this one? COc1ccc(CNc2cc(OC)c(OC)c(OC)c2)cc1
Found: 77 to 78 °C

Lookup: Could you tell me which melting point is on file for CN1CCN(c2cc3nc(C(C)(C)C)sc3cc2N)CC1 ?
Found: 130 °C

Lookup: Find the recorded melting point belonging to CCCCS(=O)(=O)c1c(-c2ccccc2)nn(C)c1-c1ccccc1 and report it.
Found: 92.5 to 93 °C

Lookup: I have this compound here, CCCc1c(OCCCSc2ccc3c(=O)cc(C(=O)O)[nH]c3c2CCC)ccc(C(C)=O)c1O , and I need its recorded melting point.
Found: 192 to 194 °C

Lookup: Which melting point value belongs to COc1ccc(NC(NC(c2ccc(CC(C)(C)C)s2)C2CCCCC2)=C2C(=O)OC(C)(C)OC2=O)c(OC)c1 (configuration not stated) ?
Found: 143 to 145 °C

Lookup: Record request: melting point value, item O=C(NC1=NCCCC1)Nc1ccccc1
Found: 153 to 154 °C

Lookup: I have this compound here, CCCCc1c(CN2C(=O)c3ccccc3C2=O)c(CC(C)C)nc2ccc(OCc3ccccc3)cc12 , and I need its recorded melting point.
Found: 166 to 168 °C

Lookup: Any idea what melting point was measured for O=C(O)CCc1oc(Sc2ccccc2)nc1-c1ccc(Cl)cc1 ?
Found: 156 to 157 °C

Lookup: For the compound Cc1cccc(C(C)(C)CC(O)(C(=O)Nc2ccc3c(c2)COC3=O)C(F)(F)F)c1 (configuration not stated) , what melting point is on record?
Found: 152 to 153 °C

Lookup: I would be grateful if you could share the reported melting point for COc1cnc(OC)n2nc(N)nc12 .
Found: 185 to 186 °C

Lookup: What value of melting point has been recorded for this entry: CCCCOC(=O)c1ccc(N2CCN(c3ccc(CC(C)O)cc3)CC2)cc1 (configuration not stated)
Found: 85 to 86 °C
